- Assayed target: HLA-B*2702 (Homo sapiens, UniProt P01889, D138H/D201E/E176V/E204Q/G107R/H137Y/K202T/L105A/N104I/N87E/Q56L/Q94K/R106L/R155S/R180L/S101N/S121N/S48T/Y140D/Y33H/Y91C)
- Assay protocol: HLA/peptide complex stability assay, RMA-S cells transfected with HLA-B*2702
- Format: cell-based
- Conditions used: EC50, B*2702
Ends that are not written are not given here.
Recorded metric: EC50

* GRNEVFSNK [L 2089-2097] | > 200 µM

Proceed to the following item.
Prompt line: Please report the recorded EC50 for SRSALLAQM [M 76-84] .
Response line: > 200 µM

Sourced from paper PMC4182091
